The measured values listed here are drawn from patent US8299070B2.

# SUBJECT OF TEST: hITK enzyme (FLAG-tagged full-length hITK) (Homo sapiens, UniProt Q08881)
# Construct: strongly expressing FLAG-tagged full-length hITK in Sf9 cells; FLAG; made in house; host or cells: Sf9 insect cells (ITK); Escherichia coli (GST-SLP76 substrate)
# Sequence (Q08881 whole entry): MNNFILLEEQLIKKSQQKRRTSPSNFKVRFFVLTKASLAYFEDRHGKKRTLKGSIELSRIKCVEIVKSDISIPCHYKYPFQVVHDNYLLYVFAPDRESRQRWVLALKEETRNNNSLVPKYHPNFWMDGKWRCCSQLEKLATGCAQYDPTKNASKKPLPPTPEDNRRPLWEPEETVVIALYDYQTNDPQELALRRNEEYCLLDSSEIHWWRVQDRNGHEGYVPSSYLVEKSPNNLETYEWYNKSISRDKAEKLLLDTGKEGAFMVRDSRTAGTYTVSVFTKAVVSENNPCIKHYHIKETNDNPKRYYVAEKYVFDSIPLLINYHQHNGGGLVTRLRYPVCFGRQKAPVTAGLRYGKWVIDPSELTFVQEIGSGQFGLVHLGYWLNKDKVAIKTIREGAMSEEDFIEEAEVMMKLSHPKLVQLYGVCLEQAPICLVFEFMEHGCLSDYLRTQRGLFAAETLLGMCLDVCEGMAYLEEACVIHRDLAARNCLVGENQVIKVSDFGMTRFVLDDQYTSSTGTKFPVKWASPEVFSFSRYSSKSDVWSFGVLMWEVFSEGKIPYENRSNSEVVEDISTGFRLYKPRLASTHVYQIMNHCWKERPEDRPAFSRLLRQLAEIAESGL
# ASSAY OVERVIEW: ITK inhibitory activity (HTRF kinase assay, biotinylated GST-SLP76 substrate)
# Format: biochemical
# APPLIED CONDITIONS: ATP concentration of the substrate solution 6 μmol/L (Examples 380 and 381)
Below: a set of entries, each annotated with reported IC50.
OUTCOME MEASURE: IC50

molecule="CC(NCCOCC(=O)O)C(=O)N(C)c1ccc2cc(-c3n[nH]c4c3CCC(C)(C)C4)[nH]c2c1 (centres unmarked)" outcome_measure=IC50 endpoint_value="2 nM"
molecule=C[C@H](C(=O)N(C)c1ccc2cc(-c3n[nH]c4c3CCC(C)(C)C4)[nH]c2c1)N1CCOCC1 outcome_measure=IC50 endpoint_value="2 nM"

====

# SUBJECT OF TEST: hITK enzyme (FLAG-tagged full-length hITK) (Homo sapiens)
# Construct: strongly expressing FLAG-tagged full-length hITK in Sf9 cells; FLAG; made in house; host or cells: Sf9 insect cells (ITK); Escherichia coli (GST-SLP76 substrate)
# ASSAY OVERVIEW: ITK inhibitory activity (HTRF kinase assay, biotinylated GST-SLP76 substrate)
# Type: biochemical
# APPLIED CONDITIONS: IC50 calculated from the 2 test compound concentrations sandwiching 50% ITK inhibitory rate
pIC50: −log10 of the molar value.
# cutoff 8 applies to pIC50; >= gives fulfilled, < gives not fulfilled

molecule="CC1(C)CCc2c(-c3cc4ccc(N(CCO)C(=O)C5CCCO5)cc4[nH]3)n[nH]c2C1 (stereo not shown)" answer_label=fulfilled
molecule="CC(C(=O)N(C)c1ccc2cc(-c3n[nH]c4c3CCC(C)(C)C4)[nH]c2c1)N1CCOC(O)C1 (stereo not shown)" answer_label=fulfilled
molecule=CN(C(=O)NCc1ccccc1)c1ccc2cc(-c3n[nH]c4c3CCC(C)(C)C4)[nH]c2c1 answer_label="not fulfilled"
molecule=CC1(C)CCc2c(-c3cc4cc(C(=O)NCCO)ccc4[nH]3)n[nH]c2C1 answer_label="not fulfilled"
molecule=CC1(C)CCc2c(-c3cc4ccc(C(=O)N5CCC(O)CC5)cc4[nH]3)n[nH]c2C1 answer_label="not fulfilled"
molecule=CN(C(=O)COC1CCOCC1)c1ccc2cc(-c3n[nH]c4c3CCC(C)(C)C4)[nH]c2c1 answer_label=fulfilled
molecule=CCC(=O)N(C)CC(=O)N(C)c1ccc2cc(-c3n[nH]c4c3CCC(C)(C)C4)[nH]c2c1 answer_label=fulfilled
molecule=CC1(C)CCc2c(-c3cc4ccc(NC(N)=O)cc4[nH]3)n[nH]c2C1 answer_label="not fulfilled"
molecule=CN(C(=O)OC1CCCCC1)c1ccc2cc(-c3n[nH]c4c3CCC(C)(C)C4)[nH]c2c1 answer_label="not fulfilled"
molecule="CN(C(=O)C(O)C1CCCOC1)c1ccc2cc(-c3n[nH]c4c3CCC(C)(C)C4)[nH]c2c1 (stereo not shown)" answer_label=fulfilled
molecule=CN1CCN(CC(=O)N(C)c2ccc3cc(-c4n[nH]c5c4CCC(C)(C)C5)[nH]c3c2)C1=O answer_label=fulfilled
molecule=CC1(C)CCc2c(-c3cc4cc(C(=O)NCc5nccs5)ccc4[nH]3)n[nH]c2C1 answer_label="not fulfilled"

====

# SUBJECT OF TEST: hITK enzyme (FLAG-tagged full-length hITK) (Homo sapiens)
# Construct: strongly expressing FLAG-tagged full-length hITK in Sf9 cells; FLAG; made in house; host or cells: Sf9 insect cells (ITK); Escherichia coli (GST-SLP76 substrate)
# ASSAY OVERVIEW: ITK inhibitory activity (HTRF kinase assay, biotinylated GST-SLP76 substrate)
# Format: biochemical
# APPLIED CONDITIONS: IC50 calculated from the 2 test compound concentrations sandwiching 50% ITK inhibitory rate
Classification field. Basis: IC50. Definitions: lower level (below 0.004 µM), middle level (0.004 µM to below 0.03 µM), upper level (0.03 µM or more)

compound="CC(=O)N1CCC(C(=O)N(C)c2ccc3cc(-c4n[nH]c5c4CCC(C)(C)C5)[nH]c3c2)CC1 [Example 64]" answer_label="middle level"
compound="CC(C)OCCNC(=O)c1ccc2[nH]c(-c3n[nH]c4c3CCC(C)(C)C4)cc2c1 [Example 307]" answer_label="upper level"
compound="COCCN(C(=O)CN1CC(C)(C)OCC1=O)c1ccc2cc(-c3n[nH]c4c3CCC(C)(C)C4)[nH]c2c1 [Example 278]" answer_label="lower level"
compound="CC1CCC(=O)N1CC(=O)N(C)c1ccc2cc(-c3n[nH]c4c3CCC(C)(C)C4)[nH]c2c1 (stereo not shown) [Example 136]" answer_label="lower level"
compound="CN(c1ccc2cc(-c3n[nH]c4c3CCC(C)(C)C4)[nH]c2c1)C(=O)[C@H]1CC[C@H](O)CC1 [Example 101]" answer_label="middle level"
compound="COC1(C)CCN(c2ccc3cc(-c4n[nH]c5c4CCC(C)(C)C5)[nH]c3c2)C1=O (stereo not shown) [Example 243]" answer_label="middle level"
compound="CCN(C(=O)CN1CCC(C)(C)C1=O)c1ccc2cc(-c3n[nH]c4c3CCC(C)(C)C4)[nH]c2c1 [Example 284]" answer_label="lower level"
compound="CCC(C(=O)N(C)c1ccc2cc(-c3n[nH]c4c3CCC(C)(C)C4)[nH]c2c1)N1CCOCC1 (stereo not shown) [Example 129]" answer_label="middle level"
compound="COC(=O)CN(C)C(=O)c1ccc2[nH]c(-c3n[nH]c4c3CCC(C)(C)C4)cc2c1 [Example 311]" answer_label="upper level"
compound="CCC(=O)N(C)c1ccc2cc(-c3n[nH]c4c3CC(OC(C)C)CC4)[nH]c2c1 (stereo not shown) [Example 371]" answer_label="upper level"
compound="CC1(C)CCc2c(-c3cc4ccc(N5CCC(C)(O)C5=O)cc4[nH]3)n[nH]c2C1 (stereo not shown) [Example 244]" answer_label="middle level"
compound="COCCN(C(=O)CN1C[C@H](C)OCC1=O)c1ccc2cc(-c3n[nH]c4c3CCC(C)(C)C4)[nH]c2c1 [Example 280]" answer_label="lower level"
compound="COCC(=O)N(C)CC(=O)N(C)c1ccc2cc(-c3n[nH]c4c3CCC(C)(C)C4)[nH]c2c1 [Example 180]" answer_label="lower level"
compound="CC(CO)NC(=O)c1ccc2cc(-c3n[nH]c4c3CCC(C)(C)C4)[nH]c2c1 (stereo not shown) [Example 20]" answer_label="upper level"
compound="CC(C)(C)CNC(=O)c1ccc2cc(-c3n[nH]c4c3CCC(C)(C)C4)[nH]c2c1 [Example 11]" answer_label="upper level"
compound="CN(C(=O)[C@H]1CCC(=O)N1C)c1ccc2cc(-c3n[nH]c4c3CCC(C)(C)C4)[nH]c2c1 [Example 150]" answer_label="lower level"
compound="COCC(=O)N(C)c1ccc2cc(-c3n[nH]c4c3CCCC4)[nH]c2c1 [Example 352]" answer_label="upper level"
compound="CC1(C)CCc2c(-c3cc4ccc(N5CCC(C)(CO)C5=O)cc4[nH]3)n[nH]c2C1 (stereo not shown) [Example 230]" answer_label="middle level"
compound="CC1(C)CCc2c(-c3cc4cc(C(=O)NCCOc5ccccc5)ccc4[nH]3)n[nH]c2C1 [Example 309]" answer_label="upper level"
compound="CC1COCC(=O)N1C(C)C(=O)N(C)c1ccc2cc(-c3n[nH]c4c3CCC(C)(C)C4)[nH]c2c1 (stereo not shown) [Example 152]" answer_label="middle level"
compound="CCN(C)C(=O)c1ccc2[nH]c(-c3n[nH]c4c3CCC(C)(C)C4)cc2c1 [Example 331]" answer_label="upper level"
compound="COCCN(C(=O)CN1C[C@@H](C)OCC1=O)c1ccc2cc(-c3n[nH]c4c3CCC(C)(C)C4)[nH]c2c1 [Example 283]" answer_label="lower level"
compound="CCC(=O)N(C)[C@@H](C)C(=O)N(C)c1ccc2cc(-c3n[nH]c4c3CCC(C)(C)C4)[nH]c2c1 [Example 203]" answer_label="middle level"
compound="CC1(C)CCc2c(-c3cc4cc(C(=O)N5CCCC(O)C5)ccc4[nH]3)n[nH]c2C1 (stereo not shown) [Example 301]" answer_label="upper level"
compound="CCOCC(=O)N(C)c1ccc2cc(-c3n[nH]c4c3CCC(C)(C)C4)[nH]c2c1 [Example 44]" answer_label="lower level"
compound="CCC(=O)N(C)c1ccc2cc(-c3n[nH]c4c3CC(OC)C(C)(C)C4)[nH]c2c1 (stereo not shown) [Example 372]" answer_label="middle level"
compound="CC1CC(=O)N(CC(=O)N(C)c2ccc3cc(-c4n[nH]c5c4CCC(C)(C)C5)[nH]c3c2)C1 (stereo not shown) [Example 188]" answer_label="lower level"
compound="CC(O)C(=O)N(C)c1ccc2cc(-c3n[nH]c4c3CCC(C)(C)C4)[nH]c2c1 (stereo not shown) [Example 46]" answer_label="middle level"
